Data origin, for the record: ChEMBL document CHEMBL3988442

# Target Under Test: Sialic acid-binding Ig-like lectin 9 (Homo sapiens) (UniProt Q9Y336)
# Sequence (Q9Y336 whole entry): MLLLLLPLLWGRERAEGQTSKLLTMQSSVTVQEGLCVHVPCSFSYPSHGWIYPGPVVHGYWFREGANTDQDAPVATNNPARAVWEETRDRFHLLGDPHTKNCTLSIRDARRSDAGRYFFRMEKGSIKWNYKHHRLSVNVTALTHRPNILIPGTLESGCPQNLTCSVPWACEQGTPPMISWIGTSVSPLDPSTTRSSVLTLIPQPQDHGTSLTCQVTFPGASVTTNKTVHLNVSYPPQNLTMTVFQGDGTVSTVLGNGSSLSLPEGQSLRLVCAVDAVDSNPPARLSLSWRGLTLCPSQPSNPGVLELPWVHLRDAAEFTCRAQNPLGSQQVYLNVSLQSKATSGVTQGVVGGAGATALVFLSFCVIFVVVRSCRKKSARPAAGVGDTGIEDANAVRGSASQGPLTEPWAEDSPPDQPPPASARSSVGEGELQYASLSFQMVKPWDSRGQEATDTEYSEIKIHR
# Assay Overview: Hs-Siglec9 ALPHAscreen SOP 20170721
# Design: scale not given: direction of the effect not stated beside the values
# Experimental Context: 10 µM
Readings of Percent Effect for the listed compounds
Please reply with the bare figure in % and do not write the unit itself.

For orientation, consider the following solved cases.
Compound	Value Units	Percent Effect
COCCN1CCCC(O)(CN2CCN(c3ncccc3C)CC2)C1=O (stereo not drawn)	%	7.83
COc1ccc(C(=O)N2C[C@@H](C(=O)O)[C@H](c3ccccc3C)C2)c(O)c1	%	32
O=C(c1ccc[nH]1)N1CCN(CC2CCOc3ccccc3C2)CC1 (stereo not drawn)	%	14.8
O=C(NS(=O)(=O)c1ccc2c(c1)OCCO2)c1ccc(Br)cc1F	%	1.7
O=C(Cn1nc2c(cc1=O)CCCC2)N[C@@H](C(=O)O)c1ccccc1	%	7.75
CCC(CO)NC(=O)c1ccc2ccc(N(C)CC3CC3)n2c1 (stereo not drawn)	%	0.399
CCc1ccc(CN2CC[C@H]3C[C@H](c4nnc(C)[nH]4)O[C@@H]3C2)o1	%	34.9
CN(C)c1ncc(CN2CCC(c3nnsc3S(C)(=O)=O)CC2)cn1	%	-0.17
CC(=O)N1CCCN(C(=O)NCc2cc[nH]n2)CC1	%	1.18
CCc1nnc2n1CCN(CC(=O)Nc1sccc1C#N)C2	%	-3.22

Incoming: Find the recorded Percent Effect belonging to Cc1nn(C)c(C)c1C1CCCN1Cc1noc(C2CC2)n1 (stereo not drawn) and report it.
Outgoing: -11.5

Incoming: Then Cc1nc(C)n(CC2CN(c3ncnc4[nH]ccc34)CCO2)n1 (stereo not drawn) ?
Outgoing: -0.101

Incoming: Then CCN1CCC(CNC(=O)C2(c3cccc(C)c3)CC2)C1 (stereo not drawn) ?
Outgoing: 2.04

Incoming: Then CNS(=O)(=O)c1ccc(C(=O)N2CCCC2c2cnn(C)c2)o1 (stereo not drawn) ?
Outgoing: -1.15

Incoming: Then CC1(C(=O)N2CCOCC2)CN(Cc2ccccn2)CCO1 (stereo not drawn) ?
Outgoing: -5.46

----------
# Target Under Test: Ubiquitin-activating enzyme e1, putative (Leishmania donovani (strain BPK282A1))
# Assay Overview: Leishmania donovani Ubiquitin Activating Enzyme (LdE1)
# Format: functional
# Set-up: scale not given: direction of the effect not stated beside the values
# Experimental Context: 30 µM
Potency and affinity values are given separately.
Property Label: Percent Effect (%)
Please reply with the bare figure in % and do not write the unit itself.

For orientation, consider the following solved cases.
Compound	Target Under Test	Value Units	Percent Effect
COc1cccc(S(=O)(=O)NC(=O)COc2c(C)cccc2C)c1	Ubiquitin-activating enzyme e1, putative (Leishmania donovani (strain BPK282A1))	%	7.79
NC(=O)CCOc1nc(-c2ccccc2Cl)no1	Ubiquitin-activating enzyme e1, putative (Leishmania donovani (strain BPK282A1))	%	2.74
NC(=O)C1(c2cnccn2)CCCN1Cc1cc2ccccc2o1 (configuration not stated)	Ubiquitin-activating enzyme e1, putative (Leishmania donovani (strain BPK282A1))	%	6.76
CN(C)S(=O)(=O)N1CCC(Oc2ccc(C#N)cn2)CC1	Ubiquitin-activating enzyme e1, putative (Leishmania donovani (strain BPK282A1))	%	5.2
Cc1n[nH]c(C)c1-c1cnc(CC2CCN(C)C2)cn1 (configuration not stated)	Ubiquitin-activating enzyme e1, putative (Leishmania donovani (strain BPK282A1))	%	2.67
Cn1ccnc1CN1CCN(c2ccc(C#N)cn2)CC1	Ubiquitin-activating enzyme e1, putative (Leishmania donovani (strain BPK282A1))	%	-67.6
O=C1OCCN1CCOc1nc(-c2ccccc2Cl)no1	Ubiquitin-activating enzyme e1, putative (Leishmania donovani (strain BPK282A1))	%	16.4
CC(C)n1c(=O)nc2n1C(=O)N(c1ccccc1)C2	Ubiquitin-activating enzyme e1, putative (Leishmania donovani (strain BPK282A1))	%	18.4

Incoming: Find the recorded Percent Effect belonging to c1ccc(-c2noc(CN3CCOC(Cn4cccn4)C3)n2)nc1 (configuration not stated) and report it.
Outgoing: 0

Incoming: Then Cc1cnn(CC2CN(Cc3cccc(C(=O)N(C)C)c3)CCO2)c1 (configuration not stated) ?
Outgoing: 23.4

Incoming: Then Cc1oncc1C(=O)N1CCC2(CC1)CC(c1ccccc1)C(=O)N2C (configuration not stated) ?
Outgoing: -16

Incoming: Then Cc1nn(C)c(C)c1-c1cncc(C2CCN(S(C)(=O)=O)CC2)n1 ?
Outgoing: -2.67

----------
# Target Under Test: Arginase-2, mitochondrial (Homo sapiens) (UniProt P78540)
# Sequence (whole entry): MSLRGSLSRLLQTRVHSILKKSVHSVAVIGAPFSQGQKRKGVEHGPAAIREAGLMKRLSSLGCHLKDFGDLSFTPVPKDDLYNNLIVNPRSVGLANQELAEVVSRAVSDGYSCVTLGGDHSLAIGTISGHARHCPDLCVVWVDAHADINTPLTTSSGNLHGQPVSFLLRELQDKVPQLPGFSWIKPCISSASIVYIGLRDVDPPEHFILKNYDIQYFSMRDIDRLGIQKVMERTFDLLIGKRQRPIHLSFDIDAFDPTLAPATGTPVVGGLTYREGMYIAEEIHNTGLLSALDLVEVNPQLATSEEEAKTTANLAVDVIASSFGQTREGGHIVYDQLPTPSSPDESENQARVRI
# Assay Overview: in vitro enzyme assay to detect the production of urea directly proportional to the activity of Arginase II; note: in the data most compounds retested in dose-response had high values
# Type: functional
# Parameters: scale not given: direction of the effect not stated beside the values
# Experimental Context: 33.3 µM
Property Label: Percent Effect (%)
Please reply with the bare figure in % and do not write the unit itself.

Compound	Target Under Test	Percent Effect, %
Cc1cccc(COC[C@@H]2CC[C@H]3[C@H](CCN3Cc3ccco3)O2)n1	Arginase-2, mitochondrial (Homo sapiens) (UniProt P78540)	-2.79
O=C1[C@H]2CN(Cc3nccs3)C[C@H]2CN1c1ccsc1	Arginase-2, mitochondrial (Homo sapiens) (UniProt P78540)	0.319

Incoming: Find the recorded Percent Effect belonging to COc1ccc(C2=C(C)C(N3CCc4ccccc43)=NS2(=O)=O)cc1 and report it.
Outgoing: 3.23

Incoming: Then N#Cc1ccccc1C(=O)N1CCC2(CC(=O)NC2=O)C1 (stereo not drawn) ?
Outgoing: -2.38

Incoming: Then Cc1nn(C)c(C)c1C1CCCN1C(=O)c1ccc(CN(C)C)cc1 (stereo not drawn) ?
Outgoing: 0.554

Incoming: Then CC(C)C(Sc1nnnn1-c1ccccc1)C(=O)NCc1cccnc1 (stereo not drawn) ?
Outgoing: -1.42

Incoming: Then COCCCNC(=O)NCc1ccc(C)cc1 ?
Outgoing: -4.52

Incoming: Then Cc1nc(CNC(=O)NCC(O)c2ccc(F)c(F)c2)cs1 (stereo not drawn) ?
Outgoing: -3.51

Incoming: Then CC(=O)N1CCC(c2ccnc(Nc3cnccn3)n2)C1 (stereo not drawn) ?
Outgoing: -4.43

Incoming: Then O=C(NCCN1CCOCC1)NCc1ncc(-c2ccccc2)o1 ?
Outgoing: 0

Incoming: Then CN1CCC(c2nnc(CN3CCC(O)CC3)n2C)CC1 ?
Outgoing: 1.82

Incoming: Then CCc1csc(C2CCCN(C(=O)c3ccc(OC)nn3)C2)n1 (stereo not drawn) ?
Outgoing: -0.356

Incoming: Then CS(=O)(=O)N1C[C@@H]2CC[C@H](C1)N(Cc1cscn1)C2=O ?
Outgoing: -4.39

Incoming: Then CNc1cncc(C2CCCN2C(=O)c2ccc3oc(=O)n(C)c3c2)n1 (stereo not drawn) ?
Outgoing: 0.696

Incoming: Then CS(=O)(=O)N1CCOC2(CCCN(c3cnccn3)C2)C1 (stereo not drawn) ?
Outgoing: 1.74

Incoming: Then O=C(CCn1ccccc1=O)Nc1ccc(F)c(Cl)c1 ?
Outgoing: 3.72

Incoming: Then CCOc1ccccc1C(CC(=O)Nc1ccccc1F)NC(C)=O (stereo not drawn) ?
Outgoing: -1.92

Incoming: Then CCOc1cccc(CNc2ccccc2C(=O)OC)c1O ?
Outgoing: -10.7

----------
# Target Under Test: Tyrosyl-tRNA synthetase, putative (Trypanosoma cruzi (strain CL Brener)) (UniProt Q4DSP6)
# Sequence (Q4DSP6 as listed by the source): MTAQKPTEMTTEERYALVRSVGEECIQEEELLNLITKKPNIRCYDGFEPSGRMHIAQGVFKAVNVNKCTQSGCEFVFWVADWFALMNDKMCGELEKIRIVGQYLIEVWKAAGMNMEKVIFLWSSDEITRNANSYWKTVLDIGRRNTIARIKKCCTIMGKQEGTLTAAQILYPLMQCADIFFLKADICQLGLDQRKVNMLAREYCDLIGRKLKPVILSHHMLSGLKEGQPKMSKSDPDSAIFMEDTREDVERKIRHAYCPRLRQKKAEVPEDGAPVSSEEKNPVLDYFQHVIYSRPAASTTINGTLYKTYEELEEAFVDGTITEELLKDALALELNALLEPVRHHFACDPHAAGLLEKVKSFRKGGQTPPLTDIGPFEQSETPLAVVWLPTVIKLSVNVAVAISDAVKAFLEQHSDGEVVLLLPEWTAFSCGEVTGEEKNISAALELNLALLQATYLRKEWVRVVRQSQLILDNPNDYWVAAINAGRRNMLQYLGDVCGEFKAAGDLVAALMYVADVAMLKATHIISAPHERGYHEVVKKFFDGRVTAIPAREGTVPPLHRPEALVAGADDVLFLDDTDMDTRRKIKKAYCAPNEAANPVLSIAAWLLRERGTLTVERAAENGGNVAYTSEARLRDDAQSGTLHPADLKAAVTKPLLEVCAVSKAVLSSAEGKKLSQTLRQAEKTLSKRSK
# Assay Overview: Trypanosoma cruzi tyrosyl tRNA synthetase (TcYRS) _High Tyrosine SOP; note: in the data most compounds retested in dose-response had high values
# Format: functional
# Set-up: scale not given: direction of the effect not stated beside the values
# Experimental Context: 30 µM
Readings of Percent Effect for the listed compounds
Please reply with the bare figure in % and do not write the unit itself.

For orientation, consider the following solved cases.
Compound	Target Under Test	Value Units	Percent Effect
Cn1cccc1C(=O)N1CC[C@H]2C[C@@H](c3ccncn3)O[C@@H]2C1	Tyrosyl-tRNA synthetase, putative (Trypanosoma cruzi (strain CL Brener)) (UniProt Q4DSP6)	%	4.32
CC1CCc2nc(O)c(C(=O)NCCN(C)C)cc2C1 (stereo unspecified)	Tyrosyl-tRNA synthetase, putative (Trypanosoma cruzi (strain CL Brener)) (UniProt Q4DSP6)	%	1.06
CN(Cc1ccc(C#N)cc1)Cc1noc(C(C)(C)C)n1	Tyrosyl-tRNA synthetase, putative (Trypanosoma cruzi (strain CL Brener)) (UniProt Q4DSP6)	%	-1.07
CC(C)(C)OC(=O)N1CCCc2ccc(NCc3ncc[nH]3)cc21	Tyrosyl-tRNA synthetase, putative (Trypanosoma cruzi (strain CL Brener)) (UniProt Q4DSP6)	%	1.07
CC(C)c1nnc(NC(=O)NCc2ccnc(N(C)C)c2)s1	Tyrosyl-tRNA synthetase, putative (Trypanosoma cruzi (strain CL Brener)) (UniProt Q4DSP6)	%	1.04

Incoming: Find the recorded Percent Effect belonging to Cn1ncc2c(=O)[nH]c(CN3CCCC3c3cccs3)nc21 (stereo unspecified) and report it.
Outgoing: 7.39

Incoming: Then CN(C)S(=O)(=O)c1ccc(CN2CCCC2c2ccccc2)o1 (stereo unspecified) ?
Outgoing: 6.4

Incoming: Then NC(=O)c1cccc(CC2CCN(C(=O)CCCN3CCOCC3)C2)c1 (stereo unspecified) ?
Outgoing: 2.15
